System: HCT-8 cells
protocol: MTT cytotoxicity analysis, colorectal cancer cells HCT-8
Assay type: cell-based, human
condition-context: HCT-8 colorectal cancer cells, 48 hours of treatment, Lipofectamine RNAiMAX transfection reagent, MTT; read-out: Median inhibitory concentration IC50
[Ψ] = pseudouridine
Rule: measured IC50 below 40 nM gets Fulfilled; anything equal to or greater than 40 nM gets Not fulfilled.

As a guide, the following entries are already answered.
molecule: GL2 mimic: double-stranded RNA from Ganoderma lucidum tRNA-Ile(GAU); antisense SEQ ID NO: 3, sense SEQ ID NO: 12, length 41 (nucleic acid, RNA, backbone not given here) antisense: AUAAGGAAUCUGUAGAAGUUCGAUUCUUCUUGGGCUUACCA sense: UGGUAAGCCCAAGAAGAAUCGAACUUCUACAGAUUCCUUAU
label-value: Fulfilled
--
molecule: GL12 mimic: chemically modified GL2 double-stranded RNA (pseudouridine); antisense SEQ ID NO: 22, sense SEQ ID NO: 26, length 41 (nucleic acid, antisense: RNA, [Ψ] at 20, backbone not given here; sense: RNA, backbone not given here) antisense: AUAAGGAAUCUGUAGAAGUUCGAUUCUUCUUGGGCUUACCA sense: UGGUAAGCCCAAGAAGAAUCGAACUUCUACAGAUUCCUUAU
label-value: Fulfilled

Lab note: confirm whether the reported IC50 for this molecule is below 40 nM, equality not counting. molecule: GL1 mimic: double-stranded RNA from Ganoderma lucidum tRNA-Ile(GAU); antisense SEQ ID NO: 2, sense SEQ ID NO: 11, length 33 (nucleic acid, RNA, backbone not given here) antisense: AAGCCUAUAAUUUAAAGGUAGAAUAAUUUCUUG sense: CAAGAAAUUAUUCUACCUUUAAAUUAUAGGCUU Not fulfilled

Lab note: confirm whether the reported IC50 for this molecule is below 40 nM, equality not counting. molecule: GL11 mimic: chemically modified GL2 double-stranded RNA (5-methyluridine); antisense SEQ ID NO: 21, sense SEQ ID NO: 25, length 41 (nucleic acid, RNA, backbone not given here; further chemistry not fully specified) antisense: AUAAGGAAUCUGUAGAAGTUCGAUUCUUCUUGGGCUUACCA sense: UGGUAAGCCCAAGAAGAAUCGAACUUCUACAGAUUCCUUAU Fulfilled

// data source = patent US20250304965A1
